- System: rats
- assay_details: Subcutaneous metrazol seizure threshold test (scMet) in rats
- Type: in vivo
- run_parameters: Rattus norvegicus, po, rats, scMet model; oral administration (stated for Compound 1)
experimental_endpoint: ED50 (mg/kg)
Answers are plain numbers, in mg/kg.

Record excerpt, results attached:
CC(C)C(C(=O)NC(N)=O)C(C)C
16
CC(C)(C)CC(=O)NC(N)=O
26
CCCC(C(=O)NC(N)=O)C(C)C (racemic)
45

Attention now turns to another entry.
(Q) Need ED50 of CC[C@@H](C)[C@@H](CC)C(=O)NC(N)=O (racemic) , thanks.
(A) 14

* * *

- Test system: mice
- assay_details: Psychomotor seizure (6 Hz, 32 mA) assay in mice
- Type: in vivo
- run_parameters: Mus musculus, ip, intraperitoneal
- Method: In a third model, the compounds were tested for their ability to block 6 Hz (32 mA) seizures following intraperitoneal administration thereof to male mice. This test is aimed at identifying new drug candidates for the treatment of therapy-resistant partial seizures. Briefly, psychomotor seizure (6-Hz) assay measures the resistance of a subject to induced psychomotor seizures. The assay was conducted in mice which were pretreated with the test compound. […]
experimental_endpoint: ED50

Check out these entries, answers already filled in.
CC[C@@H](C)[C@@H](CC)C(=O)NC(N)=O (racemic)
21 mg/kg
CCC[C@@H](C(=O)NC(N)=O)C(C)C
46 mg/kg
CC(C)C(C(=O)NC(N)=O)C(C)C
43.3 mg/kg

Continue with the next compound.
(Q) // query ED50 value for entry CCCC(C(=O)NC(N)=O)C(C)C (racemic)
(A) 42.2 mg/kg

* * *

- System: rats
- assay_details: Subcutaneous metrazol seizure threshold test (scMet) in rats
- Format: in vivo
- run_parameters: Rattus norvegicus, po, rats, scMet model; oral administration (stated for Compound 1)
experimental_endpoint: ED50
Please state the number and follow it with the unit.

CCCC(CCC)C(=O)NC(N)=O [Compound 6, 1-(2-propyl-pentanoyl)-urea]
76.8 mg/kg

Could I get ED50 for every one of these entries?
1. CC(C)CC(=O)NC(N)=O [Compound 7, 3-methylbutanoylurea]
2. CC(C)(C)C(=O)NC(N)=O [Compound 9, 2,2-dimethylpropanoylurea]

(A)
1. 83 mg/kg
2. 29.8 mg/kg

* * *

- Tested on: mice
- assay_details: Psychomotor seizure (6 Hz, 32 mA) assay in mice
- Format: in vivo
- run_parameters: Mus musculus, ip, intraperitoneal
Kindly state ED50 for each of the entries shown.
Numbers only, in mg/kg.

Known ED50 results, listed for orientation:
CC(C)(C)CC(=O)NC(N)=O
80
CCCC(CCC)C(=O)NC(N)=O
57.8

(Q) Which ED50 is reported with mice for this entry: CCC[C@H](C(=O)NC(N)=O)C(C)C (stereo in doubt) ?
(A) 43

* * *

- assay_details: in vivo
- run_parameters: rat, po
experimental_endpoint: TD50

Examples from the recorded data:
CC[C@@H](C)[C@@H](CC)C(=O)NC(N)=O (racemic)
97 mg/kg
CC(C)(C)C(=O)NC(N)=O
228 mg/kg
CC(C)(C)CC(=O)NC(N)=O
143 mg/kg
CCCC(C(=O)NC(N)=O)C(C)C (racemic)
95 mg/kg

Shift focus to the following entry.
(Q) Quick one: TD50 of CC(C)CC(=O)NC(N)=O ?
(A) < 500 mg/kg
